# Test system: P388 leukemia ip, CD2F1 mice, survival T/C
# Experiment notes: NCI In Vivo Anticancer Drug Screen. Data for tumor model P388 Leukemia (intraperitoneal) in CD2F1 (CDF1) mice
# Assay context: endpoint: median survival time; dose: 50.0 mg/kg/injection; schedule: Q04DX003 (ip); vehicle: saline with Tween-80
Toxic doses and inconclusive results are not listed. How the source made its calls: active means survival T/C of 150% or more; inactive means T/C below 125% in these data.
# valid calls are active, inactive; nothing else

- Compound: "O=C(c1ccccc1)c1ccc([N+](=O)[O-])cc1"
  Qualitative label: "inactive"
- Compound: "CCCN(CCC)CCCCO"
  Qualitative label: "active"
- Compound: "O=[N+]([O-])c1ccc(S(=O)(=O)Nc2c([N+](=O)[O-])cc([N+](=O)[O-])c3ccccc23)cc1"
  Qualitative label: "inactive"
- Compound: "C[C@]12CC[C@H](O)C[C@@H]1CC[C@@H]1[C@@H]2C(=O)C[C@]2(C)C3=CC(=O)O[C@H]3C[C@@H]12"
  Qualitative label: "inactive"
- Compound: "COc1ccc(C(CC(=O)O)CC(=O)N(CCCl)CCCl)cc1 (stereo unspecified)"
  Qualitative label: "inactive"

Then this compound:
Prompt: Assay outcome for `Cc1ccc2cccc([N+](=O)[O-])c2n1` : what was it?
Response: inactive
